Here the recorded reverse-splicing fitness is given for each entry.
B1: Azoarcus group I ribozyme (parent)
chain: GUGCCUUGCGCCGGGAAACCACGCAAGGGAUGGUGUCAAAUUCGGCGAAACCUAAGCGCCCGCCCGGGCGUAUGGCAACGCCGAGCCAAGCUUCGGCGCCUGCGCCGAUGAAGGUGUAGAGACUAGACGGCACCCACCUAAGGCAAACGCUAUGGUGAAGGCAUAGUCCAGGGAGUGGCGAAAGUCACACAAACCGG

- Variants of: B1
- methodNotes: reverse-splicing fitness (ratio to wild type); higher = more active; in vitro selection; Mg2+ level not given
measuredParameter: reverse-splicing fitness

variantId: C82A A111C A120G A145G C150G U176C
measuredParameter: reverse-splicing fitness
quantitativeResult: 0.0111
--
variantId: C82A A111U C150U C169G
measuredParameter: reverse-splicing fitness
quantitativeResult: 0.0102
--
variantId: C82G A111U A120U A145C C150G C169G
measuredParameter: reverse-splicing fitness
quantitativeResult: 0.00344
--
variantId: C82U A111C A120G C150U C169A
measuredParameter: reverse-splicing fitness
quantitativeResult: 0.00877
--
variantId: C82U A111U A120G A145C C150G U176G
measuredParameter: reverse-splicing fitness
quantitativeResult: 0.0024
--
variantId: C82A A111U A120U A145G C150U C169G U176G
measuredParameter: reverse-splicing fitness
quantitativeResult: 0.00271
--
variantId: C82U A111C A145G C150G C169A U176A
measuredParameter: reverse-splicing fitness
quantitativeResult: 0.0123
--
variantId: C82G A120U A145U C150A C169U
measuredParameter: reverse-splicing fitness
quantitativeResult: 0.00221
--
variantId: C82A A120G A145U U176C
measuredParameter: reverse-splicing fitness
quantitativeResult: 0.0146
--
variantId: C82U A111U A145U C150U C169U U176A
measuredParameter: reverse-splicing fitness
quantitativeResult: 0.0148
--
variantId: A111C A120G C150U U176A
measuredParameter: reverse-splicing fitness
quantitativeResult: 0.0245
--
variantId: C82U A111G A120C A145C C150U C169U
measuredParameter: reverse-splicing fitness
quantitativeResult: 0.00927
--
variantId: C82A A145C C150U C169A
measuredParameter: reverse-splicing fitness
quantitativeResult: 0.00801
--
variantId: C82U A111G A120U A145U C150A C169A U176A
measuredParameter: reverse-splicing fitness
quantitativeResult: 0.00277
--
variantId: C82G A111C A120G A145U C169A
measuredParameter: reverse-splicing fitness
quantitativeResult: 0.00975
--
variantId: A111C A120U C150G C169A
measuredParameter: reverse-splicing fitness
quantitativeResult: 0.00675
--
variantId: C82G A111C A120U A145G C150U C169U U176C
measuredParameter: reverse-splicing fitness
quantitativeResult: 0.00492
--
variantId: A111U A145G C150G U176A
measuredParameter: reverse-splicing fitness
quantitativeResult: 0.0997
--
variantId: C82G A120C A145G U176G
measuredParameter: reverse-splicing fitness
quantitativeResult: 0.0158
--
variantId: C82G A111G A120C C150G C169U U176G
measuredParameter: reverse-splicing fitness
quantitativeResult: 0.0076
--
variantId: C82A A111U A120U C150A C169A U176G
measuredParameter: reverse-splicing fitness
quantitativeResult: 0.00306
--
variantId: C82A A111G A120C A145C C150G U176G
measuredParameter: reverse-splicing fitness
quantitativeResult: 0.00265
--
variantId: A111U A120C A145G C150G U176G
measuredParameter: reverse-splicing fitness
quantitativeResult: 0.00627
--
variantId: C82U A120C A145G C150G C169U U176C
measuredParameter: reverse-splicing fitness
quantitativeResult: 0.0111
--
variantId: C82G A111G A120C C150U C169U U176A
measuredParameter: reverse-splicing fitness
quantitativeResult: 0.0166
--
variantId: A111C A120C C150A C169A U176G
measuredParameter: reverse-splicing fitness
quantitativeResult: 0.00693
--
variantId: A111C A120U A145C C150G C169U U176C
measuredParameter: reverse-splicing fitness
quantitativeResult: 0.00313
--
variantId: C82G A145C C150U
measuredParameter: reverse-splicing fitness
quantitativeResult: 0.0965
--
variantId: C82U A111G A120U A145C C150A
measuredParameter: reverse-splicing fitness
quantitativeResult: 0.00504
--
variantId: C82G A120U C150G C169G
measuredParameter: reverse-splicing fitness
quantitativeResult: 0.0053
--
variantId: C82A A111C A120C A145U C150U C169G U176C
measuredParameter: reverse-splicing fitness
quantitativeResult: 0.015
--
variantId: A111G A120G C150U C169U U176G
measuredParameter: reverse-splicing fitness
quantitativeResult: 0.00845
--
variantId: C82G A111C C169A U176A
measuredParameter: reverse-splicing fitness
quantitativeResult: 0.0198
--
variantId: A111G A120U A145U C150U C169A U176G
measuredParameter: reverse-splicing fitness
quantitativeResult: 0.00175
--
variantId: C82A A111G A120G C150A C169A U176C
measuredParameter: reverse-splicing fitness
quantitativeResult: 0.0184
--
variantId: C82U A120G C150G C169U U176C
measuredParameter: reverse-splicing fitness
quantitativeResult: 0.0118
--
variantId: C82U A111C A120G C150G U176C
measuredParameter: reverse-splicing fitness
quantitativeResult: 0.013
--
variantId: C82A A111C A145C C150A C169A U176C
measuredParameter: reverse-splicing fitness
quantitativeResult: 0.0113
--
variantId: C82G A111G A120U A145U C169G U176C
measuredParameter: reverse-splicing fitness
quantitativeResult: 0.00235
--
variantId: C82G A111C A145U C150G C169A U176C
measuredParameter: reverse-splicing fitness
quantitativeResult: 0.0126
--
variantId: C82U A111U A120G A145C C150G C169A U176A
measuredParameter: reverse-splicing fitness
quantitativeResult: 0.00764
--
variantId: C82G A111C A120G C150U C169A U176C
measuredParameter: reverse-splicing fitness
quantitativeResult: 0.0135
--
variantId: C82U A111U C150U U176C
measuredParameter: reverse-splicing fitness
quantitativeResult: 0.0816
--
variantId: C82A A111U A145U C150U C169U U176A
measuredParameter: reverse-splicing fitness
quantitativeResult: 0.0147
--
variantId: A111U A120U A145U U176A
measuredParameter: reverse-splicing fitness
quantitativeResult: 0.241
--
variantId: C82G A111U A120U A145C C150U C169A U176C
measuredParameter: reverse-splicing fitness
quantitativeResult: 0.0022
